- Tgt: GST-KIAA1634 PDZ domain 5 (Homo sapiens (Human)), Q5TCQ9
- Sequence (Q5TCQ9 other isoform, or with tags, fused parts or gaps): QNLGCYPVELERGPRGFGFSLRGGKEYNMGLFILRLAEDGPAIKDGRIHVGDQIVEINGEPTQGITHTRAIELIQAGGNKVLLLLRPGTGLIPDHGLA
- Experiment: G assay titration, PDZ 1 ug/ml
Experimental readout: Kd
Show the value, then the unit it is measured in.

For record VPGALDYAAFSSALYGESDL (modifications not checked) [a-actinin 2] the listed Kd is 2000 nM
